- TESTED TARGET: Endothelin-1 receptor (Rattus norvegicus)
- Sequence (P26684 whole entry): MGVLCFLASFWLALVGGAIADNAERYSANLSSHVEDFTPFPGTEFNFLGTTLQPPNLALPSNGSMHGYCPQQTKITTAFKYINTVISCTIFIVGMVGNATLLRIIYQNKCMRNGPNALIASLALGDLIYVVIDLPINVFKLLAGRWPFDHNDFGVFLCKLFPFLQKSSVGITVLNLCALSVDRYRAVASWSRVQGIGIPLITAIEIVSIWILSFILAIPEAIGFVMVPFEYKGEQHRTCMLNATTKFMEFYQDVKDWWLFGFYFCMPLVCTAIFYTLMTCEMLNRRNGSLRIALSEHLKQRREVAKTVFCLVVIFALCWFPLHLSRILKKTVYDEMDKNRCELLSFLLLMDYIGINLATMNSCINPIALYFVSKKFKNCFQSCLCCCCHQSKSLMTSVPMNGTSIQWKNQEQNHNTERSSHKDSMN
- ASSAY NOTES: Binding affinity for endothelin A receptor by measuring its ability to displace [125I]ET1 from prolactin secreting rat pituitary cells(MMQ)
QUANTITY KIND: IC50 (nM)
Write the answer as a number in nM, unit excluded.

(Q) Tell me measured IC50 for CCCCN(CCCC)C(=O)CN1C[C@H](c2ccc3c(c2)OCO3)[C@@H](C(=O)O)[C@@H]1CCC1CCCCO1 (some centres undefined) please.
(A) 1.8

(Q) Tell me measured IC50 for CCCCN(CCCC)C(=O)CN1C[C@H](c2cc(OC)c3c(c2)OCO3)[C@@H](C(=O)O)[C@@H]1CC(C)(C)CCC [ABT-546] please.
(A) 0.56

(Q) Tell me measured IC50 for C=C(C)CCC[C@H]1[C@H](C(=O)O)[C@@H](c2ccc3c(c2)OCO3)CN1CC(=O)N(CCCC)CCCC please.
(A) 5.2

(Q) Tell me measured IC50 for CCCCN(CCCC)C(=O)CN1C[C@H](c2ccc3c(c2)OCO3)[C@@H](C(=O)O)[C@@H]1CCc1ccco1 please.
(A) 2.7
